Reference for the values: patent US20210269480A1

Molecular target: T1, human Nectin-4 (human, UniProt Q96NY8 32-349)
T1 construct: a Gly32-Ser349 FLAG construct is described only under the SPR assay; also called PVRL4
T1 sequence (looked up): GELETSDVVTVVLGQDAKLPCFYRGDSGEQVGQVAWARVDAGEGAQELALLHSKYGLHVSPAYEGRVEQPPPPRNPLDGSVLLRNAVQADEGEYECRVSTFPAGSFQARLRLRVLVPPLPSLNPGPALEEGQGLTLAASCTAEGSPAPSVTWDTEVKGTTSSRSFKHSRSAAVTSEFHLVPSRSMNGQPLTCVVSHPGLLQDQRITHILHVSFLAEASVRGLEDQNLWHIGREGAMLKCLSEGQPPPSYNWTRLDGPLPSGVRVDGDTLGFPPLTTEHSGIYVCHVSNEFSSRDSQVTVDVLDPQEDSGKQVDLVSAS
Test: FP competition, tracer SEQ ID NO 217
pKi: −log10 of the molar value. *1 amine or outer side, *2 acyl side, *3 side chain or, on linkers, in order; H or OH if unused. Bridges are numbered along the chain shown (N, C = ends). Where no end group is shown, it is not given here. [ ]: non-standard residue; d: D form. TATA = O=C(CC[*:1])N1CN(C(=O)CC[*:2])CN(C(=O)CC[*:3])C1; 1Nal = N[C@@H](Cc1cccc2ccccc12)C(=O)O; Hyp = O=C(O)[C@@H]1C[C@@H](O)CN1; NMeT = CN[C@H](C(=O)O)[C@@H](C)O; hArg = N=C(N)NCCCC[C@H](N)C(=O)O
Label rule, in plain words: pKi of 7 and up is yes (1), under 7 is no (0).

**Q:** Could you verify whether the entry Ac-CP[1Nal][dR]CM[hArg]DWSTP[Hyp]WC (linker 1-5-15 via TATA) [BCY8184] shows pKi of no less than 7?
**A:** yes (1)

**Q:** # repeat for CPF[dD]CM[hArg]NWSTPIWC (linker 1-5-15 via TATA) [BCY7793]
**A:** yes (1)

**Q:** # repeat for Ac-CPF[dD]C[hArg]NWS[NMeT]PIWC (linker 1-5-14 via TATA) [BCY7979]
**A:** no (0)

**Q:** # repeat for HDSCPFGCMKSWSWPIWCA (linker 4-8-18 via TATA) [BCY3393]
**A:** no (0)

**Q:** # repeat for Ac-CPFGCMKHWSWPIWC (linker 1-5-15 via TATA, also called 80-09-02-N051) [BCY7662]
**A:** yes (1)
